Value source: ChEMBL document CHEMBL1201862

Test system: A549
experiment summary: NCI tumour cell line growth inhibition, 48 h
Calls of active or inactive are those of the source. Rule as the data show it: active = GI50 up to about 1.1 µM and inactive = higher.
I'd appreciate it if you could supply GI50 values for the items below.

Recorded GI50, per entry:
>>> print(df.to_string())
                                   compound             reported
0  O=C(NNS(=O)(=O)c1ccccc1)c1csc(NC(=S)NC2CCCCC2)n1   35.2 µM (inactive)
1  CC1CC(C)C(C(O)CC2CC(=O)N(c3ccccc3)C(=O)C2)C(O)C1 (stereo not given)  > 100 µM (inactive)
2  O=[As](O)(O)c1ccc(Cc2ccc([As](=O)(O)O)cc2)cc1   1.81 µM (inactive)
3  Cc1c(CN2CCN(C)CC2)c(CN2CCN(C)CC2)c(C)n1-c1ccc(Cl)cc1   30.4 µM (inactive)

Turning now to a further compound:
Form field GI50, entry CCCCc1ccc(Nc2nc(Cl)c3ncn(C4CC(Oc5ccc(C)cc5)C(COc5ccc(C)cc5)O4)c3n2)cc1 (stereo not given) : > 100 µM (inactive)

----------
System: HOP-92
experiment summary: NCI tumour cell line growth inhibition, 48 h
Calls of active or inactive are those of the source. No stated cut-off is given here; in the data, active = GI50 up to about 1.1 µM and inactive = higher.
Answer with one of the outcomes active, inactive

>>> print(df.to_string())
                                   compound  label_value
0  On1c(-c2ccccc2)c(-c2ccccc2N2CCCC2)c2ccccc21     inactive

**Query** Recorded test outcome, item COc1cc(C[C@H]2c3cc(OC)c(OC)cc3CCN2C)c(Oc2cc3c(cc2OC)-c2c(OC)c(OC)cc4c2[C@H](C3)N(C)CC4)cc1OC
**Result** inactive

**Query** Recorded test outcome, item O=C(Nc1ccccc1)n1[nH]c(=O)n(-c2ccccc2)c1=O
**Result** inactive

**Query** Recorded test outcome, item CC1CC(C)C(C(O)CC2CC(=O)N(c3ccccc3)C(=O)C2)C(O)C1 (stereo not given)
**Result** inactive

**Query** Recorded test outcome, item Cc1cccc(/C=C2\CCCc3ccccc3C2=O)c1
**Result** inactive

**Query** Recorded test outcome, item CCN(CC)CCCNc1ccc([N+](=O)[O-])c2nc3ccc(OC)cc3c(N)c12
**Result** inactive

**Query** Recorded test outcome, item CC(N)C(C)Cc1ccccc1 (stereo not given)
**Result** inactive

**Query** Recorded test outcome, item Cc1sc(Nc2ccccc2[N+](=O)[O-])c(C#N)c1C
**Result** inactive

**Query** Recorded test outcome, item COc1ccc2c(c1)-c1nc(=O)n(CCCN(C)C)c3ccc([N+](=O)[O-])c(c13)N2
**Result** inactive

**Query** Recorded test outcome, item C=CCn1c(=O)ccn(COCCO)c1=O
**Result** inactive

**Query** Recorded test outcome, item Cc1cc(C)c2c(=N)c3ccccc3n(CCCCCCO)c2n1
**Result** inactive

**Query** Recorded test outcome, item CC(C)(C)C#C[P+](c1ccccc1)(c1ccccc1)c1ccccc1
**Result** active

**Query** Recorded test outcome, item O=c1cc(N2CCCC2)[nH]c(=O)n1Cc1ccccc1
**Result** inactive

**Query** Recorded test outcome, item CCN(CC)CCCNC(=O)c1cc(-c2nccn2C)nc2ccccc12
**Result** inactive

**Query** Recorded test outcome, item C=C(C)C(=O)O[C@H]1C[C@@]23O[C@@H]2CCC(=C[C@H]2OC(=O)C(=C)[C@H]12)COC3O (stereo not given in full)
**Result** inactive

**Query** Recorded test outcome, item Cc1ccc(NC(=O)CCC(=O)C(C#N)c2ccc(Cl)cc2)cc1C (stereo not given)
**Result** inactive

**Query** Recorded test outcome, item O=CN1CCC23CC(O)CCC2C1Cc1cc(Oc2nnnn2-c2ccccc2)cc(O)c13 (stereo not given)
**Result** inactive

**Query** Recorded test outcome, item O=C(Nc1ccc(Cl)cc1)/C(Cc1cccc[n+]1[O-])=N\Nc1ccc([N+](=O)[O-])cc1[N+](=O)[O-]
**Result** inactive

**Query** Recorded test outcome, item CC1=CC(=O)[C@@H](O)[C@]2(C)[C@H]3[C@@]4(O)OC[C@]35[C@H]([C@@H](C)[C@H]4O)[C@@H](OC(=O)C(C)(C)CO)C(=O)O[C@@H]5C[C@@H]12
**Result** active

**Query** Recorded test outcome, item CC(C)SC(C)(NC(=O)C1C(C)(C)CCC1(C)C)C(=O)O (stereo not given)
**Result** inactive
